# protocolDescription: NCI Yeast Anticancer Drug Screen. Data for the sgs1 mgt1 strain (AID 161);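 note: 0% = growth of cultures given vehicle only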
# conditionContext: S. cerevisiae sgs1 mgt1 strain, at 50.0 µM, active compounds read high
The panel holds about 79,000 compounds, 15% with a hit somewhere; the sample as a whole holds those more often.
measuredProperty: growth inhibition (%)
Form entry: value (%) — number only.

Worked cases, answers included:
>>> number("CCC1(CC)C(=O)NC(=O)[N]([Sn]([CH3])([CH3])[N]2C(=O)NC(=O)C(CC)(CC)C2=O)C1=O")
7.05
>>> number("C[N+](C)(C)CC1CCc2ccccc2C1=O (stereo not given)")
69.2
>>> number("O=C(Cc1ccc2c(c1)OCO2)c1cn(C(=O)Cc2ccc3c(c2)OCO3)c2ccccc12")
5.4

What value of growth inhibition has been reported for the following compound? "Cc1ccc(N)cc1"
-7.2

I am curious: what growth inhibition value has been reported for "O=C([CH-]C(=O)c1ccccc1)c1ccccc1.[CH2-]C.[CH2-]C.[Tl+3]" ?
37.2

====

# protocolDescription: NCI Yeast Anticancer Drug Screen. Data for the mec2-1 strain (AID 157)
# conditionContext: S. cerevisiae mec2-1 strain, at 50.0 µM
About 79,000 compounds went through this panel and 15% of them were active in at least one assay; those are over-represented in the sample as a whole. Calls of active or inactive are those of the source. Rule as the data show it: active = growth inhibition above about 70%; inactive = the rest.
Return exactly one item of Y = active, N = inactive

See these solved cases before continuing.
>>> category("COC(=O)c1cncn1C(C)c1cccc2ccccc12 (stereo unspecified)")
"Y"
>>> category("C[C@]12CC[C@@H](O)C[C@H]1[C@@H](O)C[C@@H]1[C@@H]2CC[C@]2(C)C(=O)CC[C@@H]12")
"N"

# next molecule below
I would be grateful if you could indicate the recorded call for "CCOP(=O)(OCC)/C(C#N)=C/c1ccc(C)o1" .
N

====

# protocolDescription: NCI Yeast Anticancer Drug Screen. Data for the sgs1 mgt1 strain (AID 161);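 note: 0% = growth of cultures given vehicle only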
# conditionContext: S. cerevisiae sgs1 mgt1 strain, at 50.0 µM, active compounds read high
Compounds without any hit were thinned out: in the full panel of roughly 79,000, 15% have a hit.
measuredProperty: growth inhibition (%)
Numbers only here, please. The scale is %.

Below: 4 compounds and their reported growth inhibition.
>>> number("O=P(CCP(=O)(c1ccccc1)c1ccccc1)(c1ccccc1)c1ccccc1")
-0.5
>>> number("C=C1C(=O)OC2CCN3CC=C(COC(=O)C(C)(O)C4(CO4)C1C)C23 (stereo not given)")
-20.9
>>> number("COc1ccc2ccc([Se]c3ccc4ccc(OC)cc4c3)cc2c1")
-1.85
>>> number("FC(F)(F)c1ccc(Cl)c(NC2=NCCCS2)c1")
2.15

Moving on to another compound below.
Dear colleague, I am looking for the recorded growth inhibition of the following compound: "N#CN=C(N)NC#N"
7.3

====

# protocolDescription: NCI Yeast Anticancer Drug Screen. Data for the mlh1 rad18 strain (AID 175)
# conditionContext: S. cerevisiae mlh1 rad18 strain growth inhibition; at 50.0 µM; active compounds read high
Compounds without any hit were thinned out: in the full panel of roughly 79,000, 15% have a hit.
measuredProperty: growth inhibition (%)
Numeric only. Scale: %

Example entries begin here.
>>> number("COC(=O)C(C)N(CCCl)P1(=O)OCCCN1CCCl (stereo not drawn)")
20.6
>>> number("CC[C@@H](C)C(=O)O[C@H]1[C@H](O)[C@H]2[C@@H](CN3C[C@@H](C)CC[C@H]3[C@@]2(C)O)[C@@H]2C[C@]34O[C@]5(O)[C@@H](OC(=O)[C@@](C)(O)CC)CC[C@@]3(C)[C@@H]5[C@@H](OC(C)=O)[C@@H](OC(C)=O)[C@H]4[C@@]21O")
7.35
>>> number("C[C@H](CCC1SC1(C)C)C1CCC2(C)C3=C(CC[C@]12C)[C@@]1(C)CC[C@H](O)C(C)(C)C1CC3 (stereo partly drawn)")
1.9
>>> number("CCOC(=O)CN(Cc1ccccc1)Cc1c(C(=O)c2ccccc2)c2ccccc2n1C(=O)c1ccccc1")
-18.6
>>> number("O=C(Nc1c(O)[nH]c(=S)[nH]c1=O)c1ccco1")
-16
>>> number("CNC(=O)N1CN(c2ccccc2)C2(CCN(Cc3ccccc3)CC2)C1=O")
-4.1
>>> number("CCC(C)c1ccc(O)cc1 (stereo not drawn)")
-4.65
>>> number("O=Cc1ccccc1O.[La]")
2.15
>>> number("CN(C)C(=S)Oc1c(S(=O)(=O)F)ccc(Cl)c1Cl")
98.3
>>> number("Cc1ccc(N)cc1")
1.3

Field request: growth inhibition | item: "CN(C(=O)COc1ccc([N+](=O)[O-])cc1Cl)c1ccc(S(=O)(=O)F)cc1"
16.5

Item "O=C(N/N=C/c1cc(Cl)cc(Cl)c1[O-])c1ccccc1O.O=C(N/N=C/c1cc(Cl)cc(Cl)c1[O-])c1ccccc1O.[Cu+2]" has what recorded growth inhibition?
12.3

growth inhibition lookup needed for COC1=CC2CCC3C(CCC4(C)C(OC(C)=O)CCC34)C2(C)CC1 (stereo not drawn) , thanks.
-6.8

What measured growth inhibition goes with "CCOP(=O)(OCC)/C(C#N)=C/C=C/c1ccco1" ?
1.8

Requested read-out: growth inhibition. Entry: "O=NN1CCCS1(=O)=O"
18.8

The reported numbers originate from PubChem BioAssay (NCI).
